- EXPERIMENTAL_TARGET: CYP2C9 (Homo sapiens, UniProt P11712)
- Construct: co-incubated with human liver microsomes; from tissue; host or cells: human liver microsomes
- Sequence (P11712 whole entry): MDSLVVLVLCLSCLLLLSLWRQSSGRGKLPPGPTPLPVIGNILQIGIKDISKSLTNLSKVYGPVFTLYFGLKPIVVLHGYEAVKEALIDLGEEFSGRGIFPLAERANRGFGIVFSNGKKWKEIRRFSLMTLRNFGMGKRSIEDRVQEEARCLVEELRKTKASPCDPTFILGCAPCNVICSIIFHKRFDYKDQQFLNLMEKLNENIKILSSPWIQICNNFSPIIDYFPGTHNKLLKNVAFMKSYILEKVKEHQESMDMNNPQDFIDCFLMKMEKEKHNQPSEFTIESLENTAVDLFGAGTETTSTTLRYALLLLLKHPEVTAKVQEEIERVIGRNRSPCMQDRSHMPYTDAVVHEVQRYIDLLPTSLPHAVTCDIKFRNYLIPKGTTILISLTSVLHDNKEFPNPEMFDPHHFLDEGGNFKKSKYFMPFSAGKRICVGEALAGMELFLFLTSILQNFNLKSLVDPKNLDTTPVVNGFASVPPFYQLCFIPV
- RUN_DESCRIPTION: CYP inhibition assay in human liver microsomes
- Assay type: in vitro ADME
- CONDITION_LABEL: human liver microsomes, NADPH; read-out: CYPs 2C9 (IC50)
pIC50: −log10 of the molar value.
Some compounds, each annotated with its measured pIC50.
RECORDED_ENDPOINT: pIC50

In [3]: df
Out[3]:
                                smiles_code  assay_value
0  CC(C)(c1ccc(-c2ccc(OCc3ccc(-c4cnc(P(C)(C)=O)nc4)cc3)cc2)cc1)c1cc(Cl)c(OCCCl)c(C#N)c1       < 5.00
1  CC(C)(c1ccc(-c2ccc(OCc3ccnc(N=S4(=O)CCCC4)n3)cc2)cc1)c1cc(Cl)c(OCCCl)c(C#N)c1         5.14
2  CC(C)(c1ccc(-c2ncc(OCc3cnc(-c4cnc(P(C)(C)=O)nc4)cn3)cn2)cc1)c1cc(Cl)c(OCCCl)c(C#N)c1       < 5.00

---

- EXPERIMENTAL_TARGET: CYP3A4 (testosterone/midazolam) (Homo sapiens)
- Construct: co-incubated with human liver microsomes; from tissue; host or cells: human liver microsomes
- Sequence (P08684 whole entry): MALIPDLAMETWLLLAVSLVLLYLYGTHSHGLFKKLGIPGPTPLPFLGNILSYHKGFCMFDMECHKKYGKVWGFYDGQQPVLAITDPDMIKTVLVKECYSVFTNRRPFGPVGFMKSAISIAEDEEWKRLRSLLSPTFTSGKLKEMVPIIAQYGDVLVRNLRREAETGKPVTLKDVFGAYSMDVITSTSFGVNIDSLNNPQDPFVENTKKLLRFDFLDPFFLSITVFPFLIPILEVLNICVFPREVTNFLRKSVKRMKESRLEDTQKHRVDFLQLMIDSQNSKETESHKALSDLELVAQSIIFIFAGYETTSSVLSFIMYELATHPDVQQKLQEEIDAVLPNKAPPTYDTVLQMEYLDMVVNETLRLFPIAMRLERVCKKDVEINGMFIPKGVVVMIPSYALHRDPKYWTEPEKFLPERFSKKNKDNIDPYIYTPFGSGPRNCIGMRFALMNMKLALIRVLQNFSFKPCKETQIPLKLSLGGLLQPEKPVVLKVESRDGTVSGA
- RUN_DESCRIPTION: CYP inhibition assay in human liver microsomes
- Format: in vitro ADME
- CONDITION_LABEL: probe substrate midazolam, read-out: CYPs 3A4 (Midazolam) (IC50)
pIC50: −log10 of the molar value.
RECORDED_ENDPOINT: pIC50

>>> print(df.to_string())
                                   compound                       experimental_target  assay_value
0  CC(C)(c1ccc(-c2ccc(OCc3ccnc(N=S4(=O)CCCC4)n3)cc2)cc1)c1cnc2c(cnn2CCCl)c1 [Compound 46]  CYP3A4 (testosterone/midazolam) (Homo sapiens)         5.35
1  CC(C)(c1ccc(-c2cnc(OCc3ccc(-c4cnc(P(C)(C)=O)cn4)cc3)cn2)cc1)c1cc(Cl)c(OCCCl)c(C#N)c1 [Compound 381]  CYP3A4 (testosterone/midazolam) (Homo sapiens)       < 5.00
2  CC(C)(c1ccc(-c2ccc(OCc3ccnc(N4CC(S(C)(=O)=O)C4)n3)cc2)cc1)c1cc(Cl)c(OCCCl)c(C#N)c1 [Compound 53]  CYP3A4 (testosterone/midazolam) (Homo sapiens)       < 5.00
3  CC(C)(c1ccc(-c2cnc(OCc3ccnc(N4CC5(CCS5(=O)=O)C4)n3)cn2)cc1)c1cc(Cl)c(OCCCl)c(C#N)c1 [Compound 376]  CYP3A4 (testosterone/midazolam) (Homo sapiens)       < 5.00
4  CC(C)(c1ccc(-c2cnc(OCc3ccnc(N4CC(S(=O)(=O)C5CC5)C4)n3)cn2)cc1)c1cc(Cl)c(OCCCl)c(C#N)c1 [Compound 387]  CYP3A4 (testosterone/midazolam) (Homo sapiens)       < 5.00
5  CC(C)(c1ccc(-c2ccc(C#Cc3cnc(P(C)(C)=O)nc3)cc2)cc1)c1cc(Cl)c(OCCCl)c(C#N)c1 [Compound 109]  CYP3A4 (testosterone/midazolam) (Homo sapiens)       < 5.00
